assay.procedure: in vitro
Assay type: cell-based
condition.context: African green monkey
Peptide text beside a SMILES is read from it.
outcome.measure: GI50 at 48 h

GI50 at 48 h measured on CC[C@H](C)[C@@H]1NC(=O)[C@H](CCCNC(=N)N)NC(=O)[C@H](Cc2c[nH]c3ccccc23)NC(=O)[C@@H]2CCCN2C(=O)[C@H]2CCCN2C(=O)[C@H](C)NC(=O)[C@H](CCC(N)=O)NC(=O)[C@H](CC(C)C)NC(=O)[C@H](CCCNC(=N)N)NC(=O)[C@H](CCC(N)=O)NC(=O)[C@H](CCC(N)=O)NC(=O)[C@@H](CCCNC(=N)N)NC(=O)[C@H]([C@@H](C)CC)NC(=O)[C@H](CCCNC(=N)N)NC1=O [Example 11] (HELM PEPTIDE1{W.R.I.R.I.[dR].Q.Q.R.L.Q.A.[dP].P}$PEPTIDE1,PEPTIDE1,1:R1-14:R2$$$V2.0) = > 50 µg/mL

GI50 at 48 h measured on CC[C@H](C)[C@@H]1NC(=O)[C@H](CCCNC(=N)N)NC(=O)[C@H]([C@@H](C)CC)NC(=O)[C@H](CCCNC(=N)N)NC(=O)[C@H](Cc2c[nH]c3ccccc23)NC(=O)[C@@H]2CCCN2C(=O)[C@H]2CCCN2C(=O)[C@H](C)NC(=O)[C@H](CCC(N)=O)NC(=O)[C@H](CC(C)C)NC(=O)[C@H](CCCNC(=N)N)NC(=O)[C@H](CCC(N)=O)NC(=O)[C@H](CC(N)=O)NC(=O)[C@H](CCN)NC1=O [Example 10] (HELM PEPTIDE1{W.R.I.R.I.[Dab].N.Q.R.L.Q.A.[dP].P}$PEPTIDE1,PEPTIDE1,1:R1-14:R2$$$V2.0) = > 50 µg/mL

GI50 at 48 h measured on CC[C@H](C)[C@@H]1NC(=O)[C@H](CCCN)NC(=O)[C@H](Cc2c[nH]c3ccccc23)NC(=O)[C@@H]2CCCN2C(=O)[C@H]2CCCN2C(=O)[C@H](C)NC(=O)[C@H](CCC(N)=O)NC(=O)[C@H](CC(C)C)NC(=O)[C@H](CCCNC(=N)N)NC(=O)[C@H](CCC(N)=O)NC(=O)[C@H](CC(N)=O)NC(=O)[C@@H](CCCNC(=N)N)NC(=O)[C@H]([C@@H](C)CC)NC(=O)[C@H](CCCNC(=N)N)NC1=O [Example 6] (HELM PEPTIDE1{W.[Orn].I.R.I.[dR].N.Q.R.L.Q.A.[dP].P}$PEPTIDE1,PEPTIDE1,1:R1-14:R2$$$V2.0) = > 50 µg/mL

Entry source: patent US8895499B2
